Values were extracted from patent US7935722B2.

endpoint.name: melting point

Determine its reported melting point: "N#Cc1ccc2c(c1)c1c(n2Cc2cccc(F)n2)CC[C@@H](NC(=O)C2CC2)C1"
243 to 245 °C

Determine its reported melting point: CC(C)C(=O)NC1CCc2c(c3cc(C#N)ccc3n2Cc2ccccc2OC(F)(F)F)C1 (centres unmarked)
224 to 225 °C

Determine its reported melting point: "CC(C)C(=O)N[C@H]1CCc2c(c3cc(C#N)ccc3n2Cc2cccc(F)c2)C1"
223 to 225 °C

Determine its reported melting point: CC(C)C(=O)NC1CCc2c(c3cc(C#N)ccc3n2Cc2ccccc2OC(F)F)C1 (centres unmarked)
217 to 219 °C

Determine its reported melting point: Cc1ccc2c(c1)c1c(n2Cc2ccccc2C#N)CCC(NC(=O)C(C)C)C1 (centres unmarked)
218 to 220 °C

Determine its reported melting point: "CO/N=C/c1ccc2c(c1)c1c(n2Cc2ccccn2)CC[C@@H](NC(=O)C2CC2)C1"
215 to 217 °C

Determine its reported melting point: COc1ccccc1Cn1c2c(c3cc(Cl)ccc31)CC(NC(=O)C(C)C)CC2 (centres unmarked)
141 to 149 °C

Determine its reported melting point: CC(C)C(=O)NC1CCc2c(c3cc(F)ccc3n2Cc2ccccc2Cl)C1 (centres unmarked)
155 to 157 °C

Determine its reported melting point: CC(C)C(=O)NC1CCc2c(c3cccc(F)c3n2Cc2cccc(F)c2)C1 (centres unmarked)
185 to 188 °C

Determine its reported melting point: CC(C)C(=O)NC1CCc2c(c3cc(Cl)ccc3n2Cc2ccc(F)cc2)C1 (centres unmarked)
175 to 178 °C

Determine its reported melting point: Cc1ccc2c(c1)c1c(n2Cc2ccccc2)CCC(NC(=O)C(C)C)C1 (centres unmarked)
197 to 199 °C

Determine its reported melting point: CC(C)C(=O)NC1CCc2c(c3cc(-c4nccs4)ccc3n2Cc2cccc(F)c2)C1 (centres unmarked)
221 to 225 °C

Determine its reported melting point: CC(C)C(=O)NC1CCc2c(c3cc(C(F)(F)F)ccc3n2Cc2cccc(F)c2)C1 (centres unmarked)
131 to 138 °C

Determine its reported melting point: CC(C)C(=O)NC1CCc2c(c3cc(Br)ccc3n2Cc2ccccc2C#N)C1 (centres unmarked)
240 to 241.5 °C

Determine its reported melting point: COc1ccc2c(c1)c1c(n2Cc2ccccc2)CCC(NC(C)=O)C1 (centres unmarked)
184 to 185 °C

Determine its reported melting point: "COC(=O)Nc1ccc2c(c1)c1c(n2Cc2cccc(F)c2)CC[C@@H](NC(=O)C(C)C)C1"
111 to 115 °C

Determine its reported melting point: Cc1ccc2c(c1)c1c(n2Cc2cccc(Cl)c2)CCC(NC(=O)C(C)C)C1 (centres unmarked)
190 to 192 °C

====

- assayed.target: human androgen receptor (AR) (Homo sapiens, UniProt P10275)
- Construct: expressed in transfected cells; host or cells: mouse myoblast C2C12 cells, transiently co-transfected
- Sequence (P10275 whole entry): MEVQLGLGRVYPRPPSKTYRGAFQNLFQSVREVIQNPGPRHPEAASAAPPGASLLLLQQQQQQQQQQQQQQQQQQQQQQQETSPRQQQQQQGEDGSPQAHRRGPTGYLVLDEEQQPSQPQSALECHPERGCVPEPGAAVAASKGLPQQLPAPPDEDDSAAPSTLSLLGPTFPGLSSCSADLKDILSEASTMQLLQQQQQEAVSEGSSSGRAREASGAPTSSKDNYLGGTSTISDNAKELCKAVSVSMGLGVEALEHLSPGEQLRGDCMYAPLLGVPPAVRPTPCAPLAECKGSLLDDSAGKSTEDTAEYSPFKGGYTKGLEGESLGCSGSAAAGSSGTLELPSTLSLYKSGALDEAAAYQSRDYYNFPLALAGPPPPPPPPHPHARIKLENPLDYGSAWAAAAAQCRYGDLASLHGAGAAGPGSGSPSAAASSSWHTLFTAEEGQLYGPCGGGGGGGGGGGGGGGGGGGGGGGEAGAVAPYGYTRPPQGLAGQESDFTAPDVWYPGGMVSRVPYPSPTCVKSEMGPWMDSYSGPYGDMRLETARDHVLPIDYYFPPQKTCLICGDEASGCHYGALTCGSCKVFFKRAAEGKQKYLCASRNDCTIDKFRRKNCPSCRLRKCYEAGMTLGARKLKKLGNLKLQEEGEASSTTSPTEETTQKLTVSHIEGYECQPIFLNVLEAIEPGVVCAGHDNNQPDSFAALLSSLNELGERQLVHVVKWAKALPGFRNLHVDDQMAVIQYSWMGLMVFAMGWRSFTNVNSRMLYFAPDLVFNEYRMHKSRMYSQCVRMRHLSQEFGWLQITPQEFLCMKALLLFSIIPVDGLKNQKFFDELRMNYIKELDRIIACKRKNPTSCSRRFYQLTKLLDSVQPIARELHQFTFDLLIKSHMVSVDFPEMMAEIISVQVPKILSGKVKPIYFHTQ
- protocol.text: C2C12 AR/ARE reporter assay
- Format: cell-based
- condition.details: C2C12, read-out: C2C12 % Efficacy
Assign Emax to each entry below.
Your answer is read as %, so omit the unit and give the number.

Determine its reported Emax: CN(C)C(=O)NC1CCc2c(c3cc(OC(F)(F)F)ccc3n2Cc2cccc(F)n2)C1 (centres unmarked)
74.6

Determine its reported Emax: CC(C)C(=O)NC1CCc2c(c3cc(F)ccc3n2Cc2ccc(Cl)cc2)C1 (centres unmarked)
55.5

Determine its reported Emax: O=C(NC1CCc2c(c3cc(OC(F)(F)F)ccc3n2Cc2cccc(F)c2)C1)C1CC1 (centres unmarked)
82.4

Determine its reported Emax: CC(C)C(=O)NC1CCc2c(c3cc(C#N)ccc3n2Cc2ccccc2C(F)(F)F)C1 (centres unmarked)
88

Determine its reported Emax: CC(C)C(=O)NC1CCc2c(c3cccc(F)c3n2Cc2cccc(F)c2)C1 (centres unmarked)
62.1

Determine its reported Emax: COc1ccc2c3c(n(Cc4ccccc4)c2c1)CCC(NC(=O)C(C)C)C3 (centres unmarked)
74.9

Determine its reported Emax: COc1ccc2c(c1)c1c(n2Cc2ccccn2)CCC(NC(=O)C(C)C)C1 (centres unmarked)
80.3

Determine its reported Emax: CC(C)C(=O)NC1CCc2c(c3cc(C#N)ccc3n2Cc2cnc(Cl)s2)C1 (centres unmarked)
54.8
